The measurements presented in this section are drawn from paper PMC4872591.

- Tested on: Bloodstream form T. b. brucei (Lister 427)
- EXPERIMENT: Trypanosoma brucei brucei Alamar Blue assay
- Assay type: cell-based
- APPLIED_CONDITIONS: Trypanosoma brucei; Table 1; Alamar Blue, 48 h + 24 h; all standard deviations less than 2%; read-out: IC50 against Trypanosoma brucei brucei
REPORTED_PROPERTY: log10 of IC50 (log10 of the value in nM)

sample_smiles=Cn1cc(NC(=O)c2cc(NC(=O)c3ccc(/C=C/c4ccc5nonc5c4)cc3)cn2C)cc1C(=O)NCCN1CCOCC1 reported_property="log10 of IC50" numeric_value=1.28
sample_smiles=CC(C)CCc1sc(NC(=O)c2cc(NC(=O)c3cc(/C=C/c4ccc([N+](=O)[O-])cc4)cn3C)cn2C)nc1C(=O)NCCCN(C)C reported_property="log10 of IC50" numeric_value=2.32
sample_smiles=Cn1cc(NC(=O)c2cc(NC(=O)c3cc4ccccc4cn3)cn2C)cc1C(=O)NCCN1CCOCC1 reported_property="log10 of IC50" numeric_value=2.99
sample_smiles=CN(C)CCCNC(=O)c1cc(NC(=O)c2cc(NC(=O)c3cc(NC(=N)c4cc5ccccc5cn4)cn3C)cn2C)cn1C reported_property="log10 of IC50" numeric_value=3.69
sample_smiles=CSc1ccc(/C=C/c2ccc3cc(C(=O)Nc4cc(C(=O)Nc5cc(C(=O)NCCN6CCOCC6)n(C)c5)n(C)c4)ccc3n2)cc1 reported_property="log10 of IC50" numeric_value=3.70
sample_smiles=CC(C)n1cc(NC(=O)c2cc(NC(=O)c3cnc(Cl)c(Cl)c3)cn2C)cc1C(=O)Nc1cc(C(=O)NCCCN(C)C)n(C)c1 reported_property="log10 of IC50" numeric_value=3.60

----------
- System: HEK 293 cells
- EXPERIMENT: HEK 293 cytotoxicity assay (AlamarBlue viability)
- Type: cell-based, human
- APPLIED_CONDITIONS: Homo sapiens, HEK293; read-out: estimated IC50 against HEK 293 cells
pIC50: −log10 of the molar value.
REPORTED_PROPERTY: pIC50

molecule="CC(C)CCc1sc(NC(=O)c2cc(NC(=O)c3cc(/C=C/c4ccc([N+](=O)[O-])cc4)cn3C)cn2C)nc1C(=O)NCCN1CCOCC1 [Compound 21]" result=~5.00

----------
- System: Bloodstream form T. b. brucei (Lister 427)
- EXPERIMENT: Trypanosoma brucei brucei Alamar Blue assay
- Type: cell-based
- APPLIED_CONDITIONS: Trypanosoma brucei; Table 2; read-out: Trypanosoma brucei brucei IC50
pIC50: −log10 of the molar value.
pIC50 values by entry
REPORTED_PROPERTY: pIC50

sample_smiles=CC(C)CCc1sc(NC(=O)c2cc(NC(=O)c3cc(/C=C/c4ccc([N+](=O)[O-])cc4)cn3C)cn2C)nc1C(=O)NCCN1CCOCC1 reported_property=pIC50 numeric_value=8.27
sample_smiles=CC(C)CCc1sc(NC(=O)c2cc(NC(=O)c3ccc(/C=C/c4ccc5ccccc5c4)cc3)cn2C)nc1C(=O)NCCN1CCOCC1 reported_property=pIC50 numeric_value=7.40
sample_smiles=Cn1cc(NC(=O)c2cc(NC(=O)c3ccc(/C=C/c4ccc5nonc5c4)cc3)cn2C)cc1C(=O)NCCN1CCOCC1 reported_property=pIC50 numeric_value=7.72
sample_smiles=Cn1cc(NC(=O)c2cc(NC(=O)c3cc(NC(=O)c4cc5ccccc5cn4)cn3C)cn2C)cc1C(=O)NCCCN1CCOCC1 reported_property=pIC50 numeric_value=8.17
sample_smiles=Cn1cc(NC(=O)c2cc(NC(=O)c3ccc(/C=C/c4ccc5nsnc5c4)cc3)cn2C)cc1C(=O)NCCN1CCOCC1 reported_property=pIC50 numeric_value=8.14
